Value source: ChEMBL document CHEMBL1144487

- assay_comment: Cytotoxicity against rat NRK 52E cells after 5 days
- Assay type: cell-based
- condition_set: read-out: LC50
Could you please report measured CC50 at 120 h for the items listed next?
Numbers only, in nM.

Worked cases, CC50 at 120 h given:
given_smiles	property_measured	measured
CC(=O)NC1=CC(=O)c2ccc(-c3nc(C(=O)OCCC(C)C)cc4c3[nH]c3ccccc34)nc2C1=O	CC50 at 120 h	1620
CCCC(=O)NC1=CC(=O)c2ccc(-c3nc(C(=O)OC)cc4c3[nH]c3ccccc34)nc2C1=O	CC50 at 120 h	700
CC(=O)NC1=CC(=O)c2ccc(-c3nc(C(=O)OCCN(C)C)c(C)c4c3[nH]c3ccccc34)nc2C1=O	CC50 at 120 h	90
COC(=O)c1cc2c([nH]c3ccccc32)c(-c2ccc3c(n2)C(=O)C(NC(C)=O)=CC3=O)n1	CC50 at 120 h	500
CC(=O)NC1=CC(=O)c2ccc(-c3nc(C(=O)OCc4ccccc4)cc4c3[nH]c3ccccc34)nc2C1=O	CC50 at 120 h	9500

Provide CC50 at 120 h values for the following items, in order.
1. CCCC(=O)NC1=CC(=O)c2ccc(C)nc2C1=O
2. CC(=O)NC1=CC(=O)c2nc(C)ccc2C1=O

Result:
1. 2000
2. 21500
